system: 422866-222-R5-J1-PDC complex spheroids viability; test: Anticancer human tumor 422866-222-R5-J1-PDC patient-derived pancreatic adenocarcinoma cell line growth inhibition [RAS]; conditions: second compound 0.01 µM; first compound 1 µM; hits give low values;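 also: spheroids exposed to compounds for 7 days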
Each record is given Criterion met if its reported viability, T/C is strictly below 20%. Records at or above 20% are given Criterion not met.

Nc1ccn(C2OC(CO)C(O)C2(F)F)c(=O)n1 (configuration not stated) + C=CC(=O)N1CCN(c2nc(OCC3CCCN3C)nc3c(F)c(-c4nc(N)cc(C)c4C(F)(F)F)c(Cl)cc23)C(C)C1
Criterion met
C=CC(=O)Nc1cc(Nc2nccc(-c3cn(C)c4ccccc34)n2)c(OC)cc1N(C)CCN(C)C + C=CC(=O)N1CCN(c2nc(OCC3CCCN3C)nc3c(F)c(-c4nc(N)cc(C)c4C(F)(F)F)c(Cl)cc23)C(C)C1
Criterion met
CC(C)NCC(C(=O)N1CCN(c2ncnc3c2C(C)CC3O)CC1)c1ccc(Cl)cc1 (configuration not stated) + C=CC(=O)N1CCN(c2nc(OCC3CCCN3C)nc3c(F)c(-c4nc(N)cc(C)c4C(F)(F)F)c(Cl)cc23)C(C)C1
Criterion met
CCC(CC)c1cc(NC2CCC(N)C2)n2nccc2n1 (configuration not stated) + C=CC(=O)N1CCN(c2nc(OCC3CCCN3C)nc3c(F)c(-c4nc(N)cc(C)c4C(F)(F)F)c(Cl)cc23)C(C)C1
Criterion not met
C[C@@H](NC(=O)c1ncnc(N)c1Cl)c1ncc(C(=O)Nc2cc(C(F)(F)F)c(Cl)cn2)s1 + C=CC(=O)N1CCN(c2nc(OCC3CCCN3C)nc3c(F)c(-c4nc(N)cc(C)c4C(F)(F)F)c(Cl)cc23)C(C)C1
Criterion not met
CCN1CCN(Cc2ccc(Nc3ncc(F)c(-c4cc(F)c5nc(C)n(C(C)C)c5c4)n3)nc2)CC1 + C=CC(=O)N1CCN(c2nc(OCC3CCCN3C)nc3c(F)c(-c4nc(N)cc(C)c4C(F)(F)F)c(Cl)cc23)C(C)C1
Criterion not met

Hello, I'm reviewing records and need to know if viability, T/C of CC(=O)OC12COC1CC(O)C1(C)C(=O)C(O)C3=C(C)C(OC(=O)C(O)C(NC(=O)OC(C)(C)C)c4ccccc4)CC(O)(C(OC(=O)c4ccccc4)C21)C3(C)C (configuration not stated) + C=CC(=O)N1CCN(c2nc(OCC3CCCN3C)nc3c(F)c(-c4nc(N)cc(C)c4C(F)(F)F)c(Cl)cc23)C(C)C1 is below 20%. Could you check?
Criterion met

Hello, I'm reviewing records and need to know if viability, T/C of CC(Nc1ccc2c(c1)OCCn1cc(N3C(=O)OCC3C(F)F)nc1-2)C(N)=O (configuration not stated) + C=CC(=O)N1CCN(c2nc(OCC3CCCN3C)nc3c(F)c(-c4nc(N)cc(C)c4C(F)(F)F)c(Cl)cc23)C(C)C1 is below 20%. Could you check?
Criterion met

Hello, I'm reviewing records and need to know if viability, T/C of O=C(c1ccc(F)c(F)c1Nc1ccc(I)cc1F)N1CC(O)([C@@H]2CCCCN2)C1 + C=CC(=O)N1CCN(c2nc(OCC3CCCN3C)nc3c(F)c(-c4nc(N)cc(C)c4C(F)(F)F)c(Cl)cc23)C(C)C1 is below 20%. Could you check?
Criterion met

Hello, I'm reviewing records and need to know if viability, T/C of Cc1nc(N2CCC3(CC2)COC(C)C3N)c(CO)nc1Sc1ccnc(N)c1Cl (configuration not stated) + C=CC(=O)N1CCN(c2nc(OCC3CCCN3C)nc3c(F)c(-c4nc(N)cc(C)c4C(F)(F)F)c(Cl)cc23)C(C)C1 is below 20%. Could you check?
Criterion met

Hello, I'm reviewing records and need to know if viability, T/C of NC1c2ccccc2OC12CCN(c1cnc3c(N4CCCc5ncccc54)n[nH]c3n1)CC2 (configuration not stated) + C=CC(=O)N1CCN(c2nc(OCC3CCCN3C)nc3c(F)c(-c4nc(N)cc(C)c4C(F)(F)F)c(Cl)cc23)C(C)C1 is below 20%. Could you check?
Criterion met

Hello, I'm reviewing records and need to know if viability, T/C of CC1(O)CCCC1n1c(=O)c(C(F)F)cc2cnc(NC3CCN(S(C)(=O)=O)CC3)nc21 (configuration not stated) + C=CC(=O)N1CCN(c2nc(OCC3CCCN3C)nc3c(F)c(-c4nc(N)cc(C)c4C(F)(F)F)c(Cl)cc23)C(C)C1 is below 20%. Could you check?
Criterion not met
